# IC50 per entry for HCV polymerase 1B (Δ21 NS5B) (Hepatitis C virus genotype 1b)

Use these answered entries as a reference point.
COc1c(-c2ccc3c(c2)CC=C3CNS(C)(=O)=O)cc(-c2c[nH]c(=O)[nH]c2=O)cc1C(C)(C)C; < 10 nM
COc1c(-c2ccoc2)cc(-c2c[nH]c(=O)[nH]c2=O)cc1-c1ccc2cc(NS(C)(=O)=O)ccc2c1; 10 to 100 nM
COc1c(-c2ccc3c(c2)CCC3O)cc(-c2c[nH]c(=O)[nH]c2=O)cc1C(C)(C)C (stereo not shown); 100 to 1000 nM

# ---- query compound ----
Item `COc1c(-c2ccc3cc(NS(C)(=O)=O)ccc3c2)cc(N2CC(=O)NC2=O)cc1C(C)(C)C` has what recorded IC50?
10 to 100 nM

---

pIC50: −log10 of the molar value.
A set of molecules tested on UniProt:P26663, with measured pIC50:

COc1c(-c2ccc3cc(NS(C)(=O)=O)ccc3c2)cc(C(=O)c2ccccc2)cc1C(C)(C)C; < 6.00
COc1c(-c2ccc3cc(NS(C)(=O)=O)ccc3c2)cc(N2CCOC2=O)cc1C(C)(C)C; 6.00 to 7.00
COc1c(-c2ccc3c(CNS(C)(=O)=O)csc3c2)cc(-c2c[nH]c(=O)[nH]c2=O)cc1C(F)(F)F; 7.00 to 8.00
COc1c(-c2ccc3cc(NS(C)(=O)=O)ccc3c2)cc(N2C(=O)CN=C2O)cc1C(C)(C)C; 7.00 to 8.00
COc1c(-c2ccc(/C=N/NS(C)(=O)=O)cc2)cc(N2CCCS2(=O)=O)cc1C(C)(C)C; 6.00 to 7.00

Request - read-out pIC50 | tested on UniProt:P26663 | molecule `CCOC(=O)CCNC(=O)Nc1cc(-c2ccc3cc(NS(C)(=O)=O)ccc3c2)c(OC)c(C(C)(C)C)c1`
< 6.00

Which pIC50 is reported with UniProt:P26663 for this entry: `COc1c(/C=C/c2ccc(NS(C)(=O)=O)cc2)cc(C(=O)c2ccccc2)cc1C(C)(C)C` ?
< 6.00

---

# System: genotype 1a-H77 subgenomic replicon cell line
# assayRemarks: HCV Polymerase Replicon Assay (genotype 1a-H77, luciferase reporter)
# Type: cell-based
# experimentalParameters: Hepatitis C virus, 72 h, 1a-H77 replicon, three days
pEC50: −log10 of the molar value.
quantityMeasured: pEC50

Look over these answered cases.
COc1c(-c2ccc3cc(NS(C)(=O)=O)ccc3c2)cc(-c2c[nH]c(=O)[nH]c2=O)cc1-c1cccs1; 7.00 to 8.00
COc1c(-c2ccc3c(CNS(C)(=O)=O)csc3c2)cc(-c2c[nH]c(=O)[nH]c2=O)cc1C(F)(F)F; 6.00 to 7.00
COc1c(-c2ccc3cc(NS(C)(=O)=O)ccc3c2)cc(N2CCCS2(=O)=O)cc1C(C)(C)C; 6.00 to 7.00

// next item, pEC50 requested
Need pEC50, item `COc1c(/C=C/c2ccc(NS(C)(=O)=O)cc2)cc(-c2c[nH]c(=O)[nH]c2=O)cc1C(C)(C)C`
≥ 8.00

---

# collection of IC50 values tested on HCV polymerase 1B (Δ21 NS5B) (Hepatitis C virus genotype 1b)

COc1c(-c2ccc3cc(NS(C)(=O)=O)ccc3c2)cc(-c2c[nH]c(=O)[nH]c2=O)cc1C(C)(C)C; 10 to 100 nM
COc1c(-c2ccc3cc(NS(C)(=O)=O)ccc3c2)cc(-c2c[nH]c(=O)[nH]c2=O)cc1-c1ccc(C)o1; 10 to 100 nM

# query: IC50 of entry `COc1c(-c2ccc3cc(NS(C)(=O)=O)ccc3c2)cc(-c2cn(C)c(=O)[nH]c2=O)cc1C(C)(C)C`
10 to 100 nM

Could you share which IC50 value was measured for `COc1c(-c2ccc3cc(NS(C)(=O)=O)ccc3c2)cc(NC(=O)Nc2ccccc2)cc1C(C)(C)C` ?
> 1000 nM

If you can, please state the reported IC50 value of `COc1c(-c2ccc3cc(NS(C)(=O)=O)ccc3c2)cc(NC(=O)CCN)cc1C(C)(C)C` .
> 1000 nM

So what's the measured IC50 for this one? `COc1c(-c2ccc3cc(NS(C)(=O)=O)ccc3c2)cc(NC(=O)CN)cc1C(C)(C)C`
> 1000 nM

Look up IC50 for this compound: `COc1c(-c2ccc3cc(NS(C)(=O)=O)ccc3c2)cc(NC(C)=O)cc1C(C)(C)C`
> 1000 nM

---

pIC50: −log10 of the molar value.
For reference, pIC50 measured on HCV polymerase 1B (Δ21 NS5B) (Hepatitis C virus genotype 1b, UniProt P26663):

Example molecules with recorded pIC50:
COc1c(-c2ccc3cc(NS(C)(=O)=O)ccc3c2)cc(NC(=O)NC(C)C)cc1C(C)(C)C; < 6.00
COc1c(-c2ccsc2)cc(-c2c[nH]c(=O)[nH]c2=O)cc1-c1ccc2cc(NS(C)(=O)=O)ccc2c1; > 8.00

Field: pIC50 (HCV polymerase 1B (Δ21 NS5B) (Hepatitis C virus genotype 1b, UniProt P26663)). Entry: `COc1c(-c2ccc3cc(NS(C)(=O)=O)ccc3c2)cc(-c2ccc(=O)[nH]c2)cc1C(C)(C)C`
< 6.00

Query pIC50 on HCV polymerase 1B (Δ21 NS5B) (Hepatitis C virus genotype 1b, UniProt P26663) for `COc1c(-c2ccc3cc(NS(C)(=O)=O)ccc3c2)cc(-c2ccc[nH]c2=O)cc1C(C)(C)C`
Sequence (P26663 2420-2989, stated change not applied): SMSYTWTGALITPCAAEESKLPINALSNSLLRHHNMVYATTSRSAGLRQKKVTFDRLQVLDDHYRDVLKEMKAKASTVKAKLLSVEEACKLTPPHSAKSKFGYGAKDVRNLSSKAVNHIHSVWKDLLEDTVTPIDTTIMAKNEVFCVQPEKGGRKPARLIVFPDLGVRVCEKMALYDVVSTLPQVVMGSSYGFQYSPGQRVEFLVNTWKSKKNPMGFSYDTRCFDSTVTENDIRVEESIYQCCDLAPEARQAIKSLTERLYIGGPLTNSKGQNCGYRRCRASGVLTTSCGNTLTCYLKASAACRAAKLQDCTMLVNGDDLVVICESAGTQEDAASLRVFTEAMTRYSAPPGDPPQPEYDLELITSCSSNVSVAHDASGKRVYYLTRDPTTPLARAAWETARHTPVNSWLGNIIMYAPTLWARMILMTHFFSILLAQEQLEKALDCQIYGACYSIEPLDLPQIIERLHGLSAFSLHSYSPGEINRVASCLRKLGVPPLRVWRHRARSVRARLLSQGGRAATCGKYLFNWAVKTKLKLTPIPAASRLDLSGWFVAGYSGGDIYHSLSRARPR
7.00 to 8.00

Query for HCV polymerase 1B (Δ21 NS5B) (Hepatitis C virus genotype 1b, UniProt P26663): what pIC50 does the record show for `COc1c(-c2ccc3cc(NS(C)(=O)=O)ccc3c2)cc(NC(=O)CCNC(=O)OC(C)(C)C)cc1C(C)(C)C` ?
< 6.00

# query: pIC50 | item `COc1c(-c2ccc3cc(NS(C)(=O)=O)ccc3c2)cc(NC(=O)CNC(=O)OC(C)(C)C)cc1C(C)(C)C` | system: HCV polymerase 1B (Δ21 NS5B) (Hepatitis C virus genotype 1b, UniProt P26663)
< 6.00

Missing value: pIC50, HCV polymerase 1B (Δ21 NS5B) (Hepatitis C virus genotype 1b, UniProt P26663), entry `CCc1c(-c2ccc3cc(NS(C)(=O)=O)ccc3c2)cc(-c2c[nH]c(=O)[nH]c2=O)cc1C(C)(C)C` . Fill in?
7.00 to 8.00

---

# Test system: genotype 1b-Con1 subgenomic replicon cell line
# assayRemarks: HCV Polymerase Replicon Assay (genotype 1b-Con1, luciferase reporter)
# Type: cell-based
# experimentalParameters: Hepatitis C virus, 72 h, 1b-Con1 replicon, three days
pEC50: −log10 of the molar value.
Recorded pEC50, one value per entry.

These solved cases illustrate the format of a correct answer.
CCc1c(-c2ccc3cc(NS(C)(=O)=O)ccc3c2)cc(-c2c[nH]c(=O)[nH]c2=O)cc1C(C)(C)C [compound 36]; 6.00 to 7.00
COc1c(-c2ccc3cc(NS(C)(=O)=O)ccc3c2)cc(NC(N)=O)cc1C(C)(C)C [compound 14]; 7.00 to 8.00
COc1c(-c2ccc3cc(NS(C)(=O)=O)ccc3c2)cc(NC(=O)CCNC(=O)OC(C)(C)C)cc1C(C)(C)C [compound 23]; < 6.00

# get_value(readout='pEC50', item= COc1c(-c2ccc(/C=N/NS(C)(=O)=O)cc2)cc(N2CCCS2(=O)=O)cc1C(C)(C)C [compound 45] )
6.00 to 7.00

Query: pEC50; subject: COc1c(-c2ccc3cc(NS(C)(=O)=O)ccc3c2)cc(-c2cn(C)c(=O)[nH]c2=O)cc1C(C)(C)C [compound 7]
≥ 8.00

// lookup pEC50 for COc1c(-c2ccc3cc(NS(C)(=O)=O)ccc3c2)cc(-c2c[nH]c(=O)[nH]c2=O)cc1C(C)(C)C [compound 28]
≥ 8.00

# get_value(readout='pEC50', item= COc1c(-c2ccc3cc(NS(C)(=O)=O)ccc3c2)cc(-c2ccc(F)cc2F)cc1C(C)(C)C [compound 11] )
< 6.00

---

As shown below, each of these compounds has a reported EC50 value.
# Test system: genotype 1b-Con1 subgenomic replicon cell line
# assayRemarks: HCV Polymerase Replicon Assay (genotype 1b-Con1, luciferase reporter)
# Type: cell-based
# experimentalParameters: Hepatitis C virus, 72 h, 1b-Con1 replicon, three days

Below, 3 compounds whose answers are already recorded.
COc1c(-c2ccc3cc(NS(C)(=O)=O)ccc3c2)cc(-c2cn(C)c(=O)n(C)c2=O)cc1C(C)(C)C; 0.01 to 0.1 µM
COc1c(Br)cc(-c2c[nH]c(=O)[nH]c2=O)cc1C(C)(C)C; > 1 µM
COc1c(Br)cc(-c2c[nH]c(=O)[nH]c2=O)cc1C(F)(F)F; > 1 µM

# ---- query compound ----
Fill in: EC50 of `COc1c(-c2ccc3cc(NS(C)(=O)=O)ccc3c2)cc(-c2c[nH]c(=O)[nH]c2=O)cc1-c1ccc(C)o1` is ___
≤ 0.01 µM
